biological target: T1, human PD-L1, full-length, on CHO cells (human, UniProt Q9NZQ7 19-290); assay: flow cytometry, CHO/PD-L1 cells; MFI relative to WT CD80 ECD-Fc
T1 construct: also called huPD-L1; CD274
T1 sequence (Q9NZQ7 19-290): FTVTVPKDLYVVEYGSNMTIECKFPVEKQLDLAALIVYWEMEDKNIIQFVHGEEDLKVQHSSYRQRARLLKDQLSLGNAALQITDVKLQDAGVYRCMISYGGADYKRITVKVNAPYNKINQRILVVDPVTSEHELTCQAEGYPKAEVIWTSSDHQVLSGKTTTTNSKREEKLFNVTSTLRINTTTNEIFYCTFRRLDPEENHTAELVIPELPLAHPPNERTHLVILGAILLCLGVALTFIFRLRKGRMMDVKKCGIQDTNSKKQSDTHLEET
Fold change to WT CD80 vs 50 fold: at or above is 1, below is -1.

- variant CD80 IgV-Fc E35D/M47V (Fc fusion, not shown: small tags and cut ends; a dimerising Fc or GST) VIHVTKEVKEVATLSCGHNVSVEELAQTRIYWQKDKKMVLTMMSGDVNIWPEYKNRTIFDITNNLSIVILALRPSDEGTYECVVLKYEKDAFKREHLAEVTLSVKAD: 1
- variant CD80 IgV-Fc V68M (Fc fusion, not shown: small tags and cut ends; a dimerising Fc or GST) VIHVTKEVKEVATLSCGHNVSVEELAQTRIYWQKEKKMVLTMMSGDMNIWPEYKNRTIFDITNNLSIMILALRPSDEGTYECVVLKYEKDAFKREHLAEVTLSVKAD: -1
- variant CD80 IgV-Fc E35D/M47L/V68M (Fc fusion, not shown: small tags and cut ends; a dimerising Fc or GST) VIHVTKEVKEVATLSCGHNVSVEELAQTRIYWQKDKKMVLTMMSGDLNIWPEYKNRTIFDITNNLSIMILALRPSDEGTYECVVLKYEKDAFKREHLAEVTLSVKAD: 1
- variant CD80 IgV-Fc E35D/M47L/L85Q (Fc fusion, not shown: small tags and cut ends; a dimerising Fc or GST) VIHVTKEVKEVATLSCGHNVSVEELAQTRIYWQKDKKMVLTMMSGDLNIWPEYKNRTIFDITNNLSIVILALRPSDEGTYECVVQKYEKDAFKREHLAEVTLSVKAD: -1
- variant CD80 IgV-Fc D46V/M47L/L85Q (Fc fusion, not shown: small tags and cut ends; a dimerising Fc or GST) VIHVTKEVKEVATLSCGHNVSVEELAQTRIYWQKEKKMVLTMMSGVLNIWPEYKNRTIFDITNNLSIVILALRPSDEGTYECVVQKYEKDAFKREHLAEVTLSVKAD: -1
- variant CD80 IgV-Fc E35D/K89N (Fc fusion, not shown: small tags and cut ends; a dimerising Fc or GST) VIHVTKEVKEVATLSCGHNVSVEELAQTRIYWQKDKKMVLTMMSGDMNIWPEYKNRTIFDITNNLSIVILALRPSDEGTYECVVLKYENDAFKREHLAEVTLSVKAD: -1
- variant CD80 IgV-Fc D46V/M47L/V68M (Fc fusion, not shown: small tags and cut ends; a dimerising Fc or GST) VIHVTKEVKEVATLSCGHNVSVEELAQTRIYWQKEKKMVLTMMSGVLNIWPEYKNRTIFDITNNLSIMILALRPSDEGTYECVVLKYEKDAFKREHLAEVTLSVKAD: 1

Has variant CD80 IgV-Fc E35D/V68M/L85Q (Fc fusion, not shown: small tags and cut ends; a dimerising Fc or GST) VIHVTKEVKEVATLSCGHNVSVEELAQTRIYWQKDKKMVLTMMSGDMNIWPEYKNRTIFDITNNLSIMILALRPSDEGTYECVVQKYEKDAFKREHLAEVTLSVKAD a recorded Fold change to WT CD80 greater than or equal to 50 fold? -1
